pKi tested on D(3) dopamine receptor (Homo sapiens): recorded values
Sequence (P35462 whole entry): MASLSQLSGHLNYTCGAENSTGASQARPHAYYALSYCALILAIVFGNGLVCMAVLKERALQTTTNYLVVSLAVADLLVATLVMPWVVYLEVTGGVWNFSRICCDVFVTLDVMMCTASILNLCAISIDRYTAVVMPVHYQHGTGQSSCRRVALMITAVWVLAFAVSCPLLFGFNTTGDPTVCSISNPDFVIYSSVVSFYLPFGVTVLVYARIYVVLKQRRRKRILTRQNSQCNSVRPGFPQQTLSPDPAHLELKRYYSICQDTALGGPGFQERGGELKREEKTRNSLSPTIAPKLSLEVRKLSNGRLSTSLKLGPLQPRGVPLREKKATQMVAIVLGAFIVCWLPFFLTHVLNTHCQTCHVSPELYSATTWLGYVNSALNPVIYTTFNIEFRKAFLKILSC
pKi: −log10 of the molar value.

Compound | Target entity | pKi
CCc1cc(Cl)c(OC)c(C(=O)NC[C@@H]2CCCN2Cc2ccccc2)c1O | D(3) dopamine receptor (Homo sapiens) | 7.54
CCc1cc(Cl)c(OC)c(C(=O)NC[C@@H]2CCCN2CCCCOc2ccc3c(c2)NC(=O)CC3)c1O | D(3) dopamine receptor (Homo sapiens) | 8.16
CCc1cc(Cl)c(OC)c(C(=O)NC[C@@H]2CCCN2CCCCNC(=O)c2cc3ccccc3o2)c1O | D(3) dopamine receptor (Homo sapiens) | 7.81
CCc1cc(Cl)c(OC)c(C(=O)NC[C@@H]2CCCN2)c1O | D(3) dopamine receptor (Homo sapiens) | 9.37
CCCN1CCC(CNC(=O)c2c(O)c(CC)cc(Cl)c2OC)C1 (stereo unspecified) | D(3) dopamine receptor (Homo sapiens) | 7.84
CCc1cc(Cl)c(OC)c(C(=O)NC[C@@H]2C[C@@H](OCCCCOc3ccc4c(c3)NC(=O)CC4)CN2)c1O | D(3) dopamine receptor (Homo sapiens) | 9.36
